Numbers sourced from patent US20200270309A1.

# procedure-summary: Half-lives and pharmacokinetic parameters of polypeptides vs HM-1
# study-conditions: in vivo
Peptide text beside a SMILES is read from it. * marks the point of attachment. X64 = O=C1C=CC(=O)N1c1cccc(CCCCCCCCCC(=O)*)c1; X28 = O=C1C=CC(=O)N1CCOCCOCCOCCCCCCC(=O)*; X46 = O=C1C=CC(=O)N1c1cccc(CCCCC(=O)*)c1
Please respond with reported AUC(0-inf) for every item in the list.
One number for each entry, in ng·h/mL.

INSERT INTO results (compound, readout_kind, assay_result) VALUES
  ('C[C@H](NC(=O)CNC(=O)[C@H](CCCNC(=N)N)NC(=O)CCCCCCOCCOCCOCCN1C(=O)C=CC1=O)C(=O)N[C@@H](CC(=O)O)C(=O)N[C@@H](CCCNC(=N)N)C(=O)N[C@@H](C)C(=O)NCC(=O)NCC(=O)NCC(=O)NCC(=O)N[C@@H](CCCNC(=N)N)C(=O)NCC(=O)N[C@@H](CC(=O)O)C(=O)O [X68] (X28-RGADRAGGGGRGD-OH)', 'AUC(0-inf)', 31800),
  ('C[C@H](NC(=O)CNC(=O)[C@H](CCCNC(=N)N)NC(=O)CCCCc1cccc(N2C(=O)C=CC2=O)c1)C(=O)N[C@@H](CC(=O)O)C(=O)N[C@@H](CCCNC(=N)N)C(=O)N[C@@H](C)C(=O)NCC(=O)NCC(=O)NCC(=O)NCC(=O)N[C@@H](CCCNC(=N)N)C(=O)NCC(=O)N[C@@H](CC(=O)O)C(=O)O [X28] (X46-RGADRAGGGGRGD-OH)', 'AUC(0-inf)', 25100);

Please look at the following compound next.
C[C@H](NC(=O)CNC(=O)[C@H](CCCNC(=N)N)NC(=O)CCCCCCCCCc1cccc(N2C(=O)C=CC2=O)c1)C(=O)N[C@@H](CC(=O)O)C(=O)N[C@@H](CCCNC(=N)N)C(=O)N[C@@H](C)C(=O)NCC(=O)NCC(=O)NCC(=O)NCC(=O)N[C@@H](CCCNC(=N)N)C(=O)NCC(=O)N[C@@H](CC(=O)O)C(=O)O [X33] (X64-RGADRAGGGGRGD-OH) yielded AUC(0-inf) of 34000

----------
# procedure-summary: Half-lives and pharmacokinetic parameters of polypeptides vs HM-1
# study-conditions: in vivo
Peptide text beside a SMILES is read from it. * marks the point of attachment. X25 = O=C1C=CC(=O)N1CCOCCOCCOCCOCCCCC(=O)*; X31 = O=C1C=CC(=O)N1CCOCCOCCOCC(=O)*; X82 = O=C1C=CC(=O)N1CCCCCCCCC(=O)*
readout-kind: MRT inf (h)
Answers are plain numbers, in h.

Please review the entries below; each comes with its answer.
INSERT INTO measurements (compound, assay_result) VALUES
  ('C[C@H](NC(=O)CNC(=O)[C@H](CCCNC(=N)N)NC(=O)COCCOCCOCCN1C(=O)C=CC1=O)C(=O)N[C@@H](CC(=O)O)C(=O)N[C@@H](CCCNC(=N)N)C(=O)N[C@@H](C)C(=O)NCC(=O)NCC(=O)NCC(=O)NCC(=O)N[C@@H](CCCNC(=N)N)C(=O)NCC(=O)N[C@@H](CC(=O)O)C(=O)O [X63] (X31-RGADRAGGGGRGD-OH)', 57.7),
  ('C[C@H](NC(=O)CNC(=O)[C@H](CCCNC(=N)N)NC(=O)CCCCOCCOCCOCCOCCN1C(=O)C=CC1=O)C(=O)N[C@@H](CC(=O)O)C(=O)N[C@@H](CCCNC(=N)N)C(=O)N[C@@H](C)C(=O)NCC(=O)NCC(=O)NCC(=O)NCC(=O)N[C@@H](CCCNC(=N)N)C(=O)NCC(=O)N[C@@H](CC(=O)O)C(=O)O [X73] (X25-RGADRAGGGGRGD-OH)', 47.9);

Moving on to another compound below.
For record C[C@H](NC(=O)CNC(=O)[C@H](CCCNC(=N)N)NC(=O)CCCCCCCCN1C(=O)C=CC1=O)C(=O)N[C@@H](CC(=O)O)C(=O)N[C@@H](CCCNC(=N)N)C(=O)N[C@@H](C)C(=O)NCC(=O)NCC(=O)NCC(=O)NCC(=O)N[C@@H](CCCNC(=N)N)C(=O)NCC(=O)N[C@@H](CC(=O)O)C(=O)O [X8] (X82-RGADRAGGGGRGD-OH) the listed MRT inf is 50
